Below, each entry is listed with its recorded ELISA_avg.
- Experimental System: T1, BCMA (Homo sapiens (Human), UniProt Q02223 1-54, limits assumed)
- T1 sequence: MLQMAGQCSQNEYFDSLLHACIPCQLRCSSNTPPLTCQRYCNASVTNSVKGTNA
- Assay Text: ELISA, format not described
- Design: unit not given here
Please give the numeric answer without any surrounding text.

Below, each entry is followed by its recorded ELISA_avg result.
Binder: D-domain SEQ ID NO: 237 (designed binder) MGSWYNFKHRLAIIKWFLEALGGSEAELAVFEVWIADFEHQLQEYKGKGNPEVEALRKEAAAIRDELQAYRHN
ELISA_avg: 16.4

Binder: D-domain SEQ ID NO: 274 (designed binder) MGSWVDFKYHLAVIKWYLEALGGSEAELADFENWIAHFESILQQYKGKGNPEVEALRKEAAAIRDELQAYRHN
ELISA_avg: 10.4

Binder: D-domain SEQ ID NO: 78 (designed binder) MGSWVEFRSRLEAISNRLRALGGSEAELAAFEKEIAAFESELQAYKGKGNPEVEELRTTAALIRVYLQAYRHN
ELISA_avg: 3.04

Binder: D-domain SEQ ID NO: 196 (designed binder) MGSWSEFWVRLGAIRDRLDALGGSEAELAAFEKEIAAFESELQAYKGKGNPEVEALRVTAAQIRHYLQAYRHN
ELISA_avg: 23.5

Lab note: next binder to report on.
Identify measured ELISA_avg corresponding to D-domain SEQ ID NO: 130 (designed binder) MGSWVEFTHRLDAIYIRLWALGGSEAELAAFEKEIAAFESELQAYKGKGNPEVEELRHEAAVIREELQAYRHN
13.9
